experiment: Displacement of ThioGlo4 from glutathione measured after 8 hrs by fluorescence assay; conditions: read-out: Kd(app)
value kind: pKd
Note on units: pKd is unitless, being -log10 of a concentration expressed in mol/L.

Data request: Given the molecule CC(=O)O[C@@H]1C=C([C@H]2O[C@@H]3OC(O)C4=C[C@@H](OC(C)=O)[C@H]5C(C)(C)CCC[C@]5(C)[C@]43O2)[C@](O)(C=O)[C@@]2(C)CCCC(C)(C)[C@H]12 (stereo partly specified) , what is its reported pKd?
Data returned: 5.14
